The reported numbers originate from ChEMBL document CHEMBL3525943.

Protocol summary: Drug excretion in male Sprague-Dawley rat urine treated with [14C]-AMG 221 at 2 mg/kg, po measured over 24 hrs by LC-MS/HPLC radiometric analysis
Format: ADME, organism-based
Parameters: dose 2 mg/kg, route oral
Assay context: in vivo
Property: Drug excretion (%)

1. C[C@H](CO)[C@]1(C)SC(N[C@H]2C[C@H]3C[C@@H]2[C@H](O)C3)=NC1=O    8.3
2. CC(C)(O)[C@]1(C)SC(N[C@H]2C[C@H]3C[C@@H]2C[C@@H]3O)=NC1=O    8.3
3. CC(C)(O)[C@]1(C)SC(N[C@H]2C[C@H]3C[C@@H]2[C@H](O)C3)=NC1=O    8.3
4. CC(C)[C@]1(C)SC(N[C@H]2C[C@H]3C[C@@H]2C[C@H]3O)=NC1=O    29
5. C[C@H](CO)[C@]1(C)SC(N[C@H]2C[C@H]3C[C@@H]2C[C@@H]3O)=NC1=O    8.3
6. CC(C)(O)[C@]1(C)SC(N[C@H]2C[C@H]3C[C@@H]2C[C@H]3O)=NC1=O    8.3
7. C[C@@H](CO)[C@]1(C)SC(N[C@H]2C[C@H]3C[C@@H]2C[C@@H]3O)=NC1=O    8.3
8. C[C@@H](CO)[C@]1(C)SC(N[C@H]2C[C@H]3C[C@@H]2C[C@H]3O)=NC1=O    8.3

I. CC(C)[C@]1(C)SC(N[C@H]2C[C@H]3C[C@@H]2[C@H](O)[C@@H]3O)=NC1=O
II. CC(C)(O)[C@]1(C)SC(N[C@H]2C[C@@H]3CC[C@H]2C3)=NC1=O
[in] Returns: the label, I or II , whose recorded Drug excretion is the lower number. Indicate which entry you chose by stating its label.
[out] I
(I: 8.3%, II: 29%)

###

System: Rattus norvegicus
Protocol summary: Total drug recovery in female Sprague-Dawley rat treated with [14C]-AMG 221 at 2 mg/kg, po measured over 48 hrs by liquid scintillation counting analysis
Assay type: ADME, organism-based
Design: dose 2 mg/kg, route oral
Assay context: in vivo
Property: Drug recovery (%)

Some compounds with recorded Drug recovery:
1. C[C@@H](C(=O)O)[C@]1(C)SC(N[C@H]2C[C@@H]3CC[C@H]2C3)=NC1=O    0.5
2. CC(O)(CO)[C@]1(C)SC(N[C@H]2C[C@@H]3CC[C@H]2C3)=NC1=O (stereo partly specified)    0.1
3. C[C@H](CO)[C@]1(C)SC(N[C@H]2C[C@H]3C[C@@H]2[C@H](O)C3)=NC1=O    0.1
4. C[C@H](CO)[C@]1(C)SC(N[C@H]2C[C@H]3C[C@@H]2CC3=O)=NC1=O    0.1
5. CC(C)[C@]1(C)SC(N[C@H]2C[C@H]3C[C@@H]2C[C@H]3O[C@@H]2O[C@H](C(=O)O)[C@@H](O)[C@H](O)[C@H]2O)=NC1=O    0.2
6. C[C@H](CO)[C@]1(C)SC(N[C@H]2C[C@H]3C[C@@H]2C[C@H]3O)=NC1=O    0.2
7. CC(C)[C@]1(C)SC(N[C@H]2C[C@H]3C[C@@H]2C[C@@H]3O[C@@H]2O[C@H](C(=O)O)[C@@H](O)[C@H](O)[C@H]2O)=NC1=O    0.2
8. CC(C)[C@]1(C)SC(N[C@H]2C[C@H]3C[C@@H]2[C@H](O)[C@@H]3O)=NC1=O    0.1
9. CC(CO[C@@H]1O[C@H](C(=O)O)[C@@H](O)[C@H](O)[C@H]1O)[C@]1(C)SC(N[C@H]2C[C@@H]3CC[C@H]2C3)=NC1=O (stereo partly specified)    0.1

a. CC(C)[C@]1(C)SC(N[C@H]2C[C@H]3C[C@@H]2C[C@@H]3O)=NC1=O
b. CC(C)(O)[C@]1(C)SC(N[C@H]2C[C@H]3C[C@@H]2[C@H](O)C3)=NC1=O
[in] Returns: the label, a or b , whose recorded Drug recovery is the lower number. Indicate which entry you chose by stating its label.
[out] b
(b: 2.4%, a: 24.2%)
